Assay: ATG_DR4_LXR_CIS: Attagene CIS-FACTORIAL HepG2 Assay for human Liver X Receptor (LXR), DR4 submotif (AID 2282929)
Settings: HepG2 Attagene DR4 cis-reporter, mRNA transcription; actives raise or lower the signal
The source made the active and inactive calls. Rule for the calls: active = hit-call score of the fitted dose curve at least 0.9, where 1 is the maximum; inactive = score below 0.9. Peptide text beside a SMILES is read from it.
quantity.kind: AC50

{"molecule": "CN1CCN(C)CC1", "quantity.kind": "AC50", "result": "inactive"}
{"molecule": "CCOB(OCC)OCC", "quantity.kind": "AC50", "result": "inactive"}
{"molecule": "CCN(CC)c1cccc(C)c1", "quantity.kind": "AC50", "result": "inactive"}
{"molecule": "COC(=O)[C@H](Cc1ccccc1)NC(=O)[C@@H](N)CC(=O)O (H-Asp-Phe-OMe)", "quantity.kind": "AC50", "result": "inactive"}
{"molecule": "CC(=O)C(C)C", "quantity.kind": "AC50", "result": "inactive"}

Query block: Given the entry `CC(C)=CCl` , report its measured AC50.
Result block: inactive

Query block: Here is the next molecule: `CC(C)(C)NC(=O)[C@H]1CC[C@H]2[C@@H]3CC[C@H]4NC(=O)C=C[C@]4(C)[C@H]3CC[C@]12C`
Result block: inactive

Query block: Here is the next molecule: `O=C(O)c1cc(O)c2ccccc2c1O`
Result block: 42.5 µM (active)

Query block: Here is the next molecule: CCC(C)C(=O)OCCc1ccccc1 (stereo not given)
Result block: inactive

Query block: Here is the next molecule: `COCC(=O)O`
Result block: inactive

Query block: Here is the next molecule: `[Cl][Sc]([Cl])[Cl]`
Result block: inactive

Query block: Here is the next molecule: `c1ccc2c(c1)[nH]c1ccccc12`
Result block: inactive

* * *

Assay: ATG_PXRE_CIS: Attagene CIS-FACTORIAL HepG2 Assay for human Pregnane X Receptor Element (PXRE) (AID 2282957)
Settings: HepG2 Attagene CIS-FACTORIAL PXRE reporter, mRNA; actives raise or lower the signal
The source made the active and inactive calls. Rule for the calls: active = hit-call score of the fitted dose curve at least 0.9, where 1 is the maximum; inactive = score below 0.9.
Valid outcomes are listed here; reply with one: label 1 (active), label 0 (inactive)

Past entries and their recorded results:
{"molecule": "CCCCC(CC)COS(=O)(=O)O (configuration not stated)", "assigned.label": "label 1"}
{"molecule": "CC(CC(C)C)=NO", "assigned.label": "label 0"}
{"molecule": "COC(C=C(C)CCC=C(C)C)OC", "assigned.label": "label 1"}
{"molecule": "O=C1CCCCCCCCCCCN1", "assigned.label": "label 1"}
{"molecule": "CC(=O)CCC1=C(C)CCCC1(C)C", "assigned.label": "label 1"}

Lab note: next molecule to report on.
Query block: Short answer needed: outcome of this test for `CCCCC1C(=O)N(c2ccccc2)N(c2ccccc2)C1=O` ?
Result block: label 1

* * *

Experiment: ATG_AP_2_CIS: Attagene CIS-FACTORIAL HepG2 Assay for human Activator Protein 2 (AP-2) (AID 2282932)
Conditions: HepG2 AP-2 cis-reporter, Attagene transcription factor profiling; actives raise or lower the signal
Active and inactive are the calls of the source. Rule for the calls: active = hit-call score of the fitted dose curve at least 0.9, where 1 is the maximum; inactive = score below 0.9.
Valid outcomes are listed here; reply with one: y (active), n (inactive)

{"molecule": "C=CCNCC=C", "assigned.label": "n"}
{"molecule": "CC(C)(O)Cc1ccccc1", "assigned.label": "n"}
{"molecule": "CCCCCCCCCCCC(C)=O", "assigned.label": "y"}
{"molecule": "CCOC(=O)CC(=O)c1ccccc1", "assigned.label": "n"}
{"molecule": "COc1cc(C)ccc1O", "assigned.label": "n"}

Query block: Short answer needed: outcome of this test for `CC(C)C(=O)OCCc1ccccc1` ?
Result block: n

Query block: Here is the next molecule: `COC(=O)c1ccc(C(=O)OC)c(C(=O)OC)c1`
Result block: n

Query block: Here is the next molecule: `CCCCCCCO`
Result block: n

Query block: Here is the next molecule: `O=C(O)CCC(=O)O`
Result block: n

Query block: Here is the next molecule: `Nc1ccnc(=O)[nH]1`
Result block: n

Query block: Here is the next molecule: `Nc1ccc(C(=O)OCCCOC(=O)c2ccc(N)cc2)cc1`
Result block: n

Query block: Here is the next molecule: `Clc1cc(Cl)c(Cl)c(Cl)c1Cl`
Result block: n

Query block: Here is the next molecule: `CCCC/C=C/C=C\C=O`
Result block: n

Query block: Here is the next molecule: `CC(CC(C)C)=NO`
Result block: n

Query block: Here is the next molecule: COC(=O)CC(C)CCC=C(C)C (stereo not drawn)
Result block: n

Query block: Here is the next molecule: `COC(Cc1ccccc1)OC`
Result block: n

Query block: Here is the next molecule: CCC(=O)C1CC(C(C)C)CC=C1C (stereo not drawn)
Result block: n

Query block: Here is the next molecule: `C=CC(=O)OCCCCCCCC(C)C`
Result block: n

Query block: Here is the next molecule: CCC(C)N (stereo not drawn)
Result block: n

Query block: Here is the next molecule: `O=S(=O)(O)c1ccc(N=Nc2c(O)ccc3ccccc23)cc1`
Result block: n

Query block: Here is the next molecule: `CCCCOCCOCCOC(C)=O`
Result block: n

Query block: Here is the next molecule: `CCCCc1ccc(Cl)cc1`
Result block: n

Query block: Here is the next molecule: `CCCCOCCOC(=O)COc1ccc(Cl)cc1Cl`
Result block: n

Query block: Here is the next molecule: `NC(=O)Nc1ccccc1`
Result block: n

Query block: Here is the next molecule: `C=CC(=O)OCCCCCCCCCC`
Result block: n

Query block: Here is the next molecule: `CCN1CN(CC)CN(CC)C1`
Result block: n

Query block: Here is the next molecule: `Cc1c[nH]c(=O)[nH]c1=O`
Result block: n

Query block: Here is the next molecule: `N#Cc1ccc(C(c2ccc(C#N)cc2)n2cncn2)cc1`
Result block: n
